These measurements were taken from BindingDB's records for doi:10.3109/14756366.2012.712516.

PARAMETER: Ki

Entry NS(=O)(=O)c1nnc(NC(=O)c2nn(-c3cccc([N+](=O)[O-])c3)c(-c3ccccc3)c2C(=O)c2ccccc2)s1 , system Carbonic anhydrase 1 (Homo sapiens): what Ki was measured? 1400 nM

###

TARGET ENTITY: Carbonic anhydrase 1 (Homo sapiens)
Sequence (P00915 whole entry): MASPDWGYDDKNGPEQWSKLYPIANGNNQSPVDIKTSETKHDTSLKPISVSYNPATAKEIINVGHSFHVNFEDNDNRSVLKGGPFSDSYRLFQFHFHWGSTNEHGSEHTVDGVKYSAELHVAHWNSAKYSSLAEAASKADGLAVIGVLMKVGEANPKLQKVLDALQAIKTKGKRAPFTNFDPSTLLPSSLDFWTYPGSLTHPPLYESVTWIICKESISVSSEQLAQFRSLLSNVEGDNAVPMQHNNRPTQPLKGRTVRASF
PROTOCOL NOTES: Esterase Activity Assay
CONDITION LABEL: pH 7.4
PARAMETER: IC50 (µM)
Reply with just the number (in µM).

Entry NS(=O)(=O)c1nnc(NC(=O)c2nn(-c3cccc([N+](=O)[O-])c3)c(-c3ccccc3)c2C(=O)c2ccccc2)s1 , system Carbonic anhydrase 1 (Homo sapiens): what IC50 was measured? 1.4

###

TARGET ENTITY: UniProt P00918
PROTOCOL NOTES: Hydratase Activity Assay
PARAMETER: pIC50
# pIC50 is unitless: minus log10 of the molar concentration; print number only

Any idea what its pIC50 is? The compound is NS(=O)(=O)c1nnc(NC(=O)c2nn(-c3cccc([N+](=O)[O-])c3)c(-c3ccccc3)c2C(=O)c2ccccc2)s1 6.40

###

PARAMETER: Ki (µM)
Reply with just the number (in µM).

Entry NS(=O)(=O)c1nnc(NC(=O)c2nn(-c3cccc([N+](=O)[O-])c3)c(-c3ccccc3)c2C(=O)c2ccccc2)s1 , system UniProtKB P00918: what Ki was measured? 3
